# Test system: Saccharomyces cerevisiae
# procedureDetails: protein stability index of tFT-peptide fusion (C-terminal peptide) (PSI (0-1 scale)); higher = more stable (slower turnover);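 also: PSI is a weighted mean of sequencing reads over stability bins, variants kept only with over 10 reads, mCherry proximal and sfGFP distal, peptide attached via GGGS linker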
# conditionLabel: genetic background: das1 deletion; temperature: 30 C
observationType: protein stability index
Answer with the value's number alone.

Given RKKIRTYINENV , state its recorded protein stability index.
0.612

Then this sequence: PYVHPFRCYWVL
0.621

Repeat for the following sequence: LVSVLLLFWFLF
0.358

Moving on to the next sequence: VTRLLLSRIDCY
0.376

Please do the same for FYLSFWFLIFFF as well.
0.273

Now the sequence TWGGGRVSLGGG
0.361

Try this sequence too: CRGLSWRMITCL
0.484

Entry to check: FWILLRVLIFVL
0.18

What do we get for FFVWLGWGMFYG ?
0.425

Item: FHLFIRRSAVIF
0.455

Subsequent entry: CFLSWSLRFFIL
0.482

Next record, please: LILLTFTLRVPV
0.233

// same read-out, input: LFFVFCLFFIYF
0.235

Note, next up: VSLLSLGYVFVY
0.212

Subsequent entry: LGSYVWVFVYFW
0.155

Also check TDSSWEVSLMVG
0.612

# iterate: LCVVFCIRTYRV
0.259

Now the same for LFFRLLCAFLFL
0.499

For PPSPAPLPDSLP then?
0.684

====

# System: Saccharomyces cerevisiae
# procedureDetails: protein stability index of tFT-peptide fusion (C-terminal peptide) (PSI (0-1 scale)); higher = more stable (slower turnover)
# conditionLabel: genetic background: wild type; temperature: 30 C
Threshold rule: protein stability index greater than or equal to 0.7 is y; below that, n.

# check: protein stability index of GSFLSAQRPCPV is greater than or equal to 0.7
n

Similarly, IPRSCRIRLAVL ?
n

Next sequence up: TTGGRGARVGGR
y

# iterate: LTGCFRSSRRCC
n

Thanks! And CASPLHPCPKST ?
n

Also RPLRVLSYVPIH ?
n

// same read-out, input: KRKRAVQYLMQP
n

// query: MRRSSKPRLSLT
y

Proceed to PSPTAPGPSIPP
n

Request: PVHPPAPHPSPP
n

What do you have for QGGREGSRQRRV ?
n

Next sequence up: RWVFAGVGLFVG
n

Another sequence to look at: HPLPPTGPPSPS
y

Lookup PGAFDLPHSQAV
n

Thanks! And GRRLSGWGAWVV ?
y

// same read-out, input: SSAALSPPPPRP
y

Record: SNNKSIRKGVSI
y

Let us now turn to VPPFGPTPLASI
y

Another sequence: MGACGGRVGKFG
n

Please answer likewise for KAASSLSRPAHL
y

How about MVGAWCAGIPGI ?
n

// next record RRPPRVYLQLSI
n

Try this sequence next: RLPPPPPPPSTP
y

How about SFPLPPLSPPSR ?
y

Entry PPPLPLVPPSPP please
n

Can you handle LCVGVGAAIRLW next?
n

Consider next the sequence FWILLRVLIFVL in the same way.
n

How about this sequence: MFFSWVLSISLT
n

Same for LIQKQTGKKKKP
y

IKNMWLACFGLY ?
n

Now try GYVVVGGGGWLG .
n

And what about the sequence GAPRESSEGRAQ ?
y

Now consider RDNNSNEMGQAI .
y

SPPPPRPPSQPS ?
n

What do you have for GSRSKLPICGCL ?
y

Item: GFLGLLASFFVL
n

What do you have for GAPPLAPTPPPP ?
y

PRLSPLPPPSFP , same question.
n

Now this one: FPSSRGLGGTMG
n

Moving on to VYMAGSFSRLFQ
y

Also PPTSPPLAPPPL , if possible.
n

Then what about the sequence FACLTPFCLCLT ?
n

SHDLASRQSAFR ?
n

Now the sequence SMPWFWFVRGIG
n

For RDPTPPNPPPSR then?
y

Field entry: KIKKLKNRRKLV
n

// next record LIRYVPFSYVLV
n

Likewise for CVSFFRCLFLIV ?
n

Entry PPPPRLPARLAP please
y

Could you do the same for PQGAYLFTSTCI , please?
y

Query VACTCILVALVV next
n

Here is the next sequence: SAPRDLYIHFSR
y

Let us now turn to IIIGTLLYVNVR
n

Likewise for KLQKKTRQKKKK ?
n

What do you get for VTRLLLSRIDCY ?
n

Query GSEAVQRKNESC next
y

Try PLKPPTPDPPHR next.
n

# repeat for GGIVLLVRVCGP
n

LGGGGGGGGRLR , same question.
n

Here is the next sequence: GCENSRRSWRPD
n

Try this sequence next: IKPVETEKRECK
n

====

# System: Saccharomyces cerevisiae
# procedureDetails: protein stability index of tFT-peptide fusion (C-terminal peptide) (PSI (0-1 scale)); higher = more stable (slower turnover)
# conditionLabel: genetic background: wild type; temperature: 30 C
observationType: protein stability index
Please reply with the value in numeric form only.

Notebook entry, Saccharomyces cerevisiae assay: protein stability index of LAPPFPVVLTPA = ?
0.334

Same question for WRSGRGRCAVSQ please.
0.721

Follow-up entry: YLLDTLTAAREI
0.673

Now the same for VFLRRFGVPWVF
0.365

And what about the sequence PPFPPRPLPPIP ?
0.693

# iterate: KTCENKKKALRR
0.692

What do you get for PTPSLPCPDHPL ?
0.693

Now try APRLFSPPEPPT .
0.702

Item: GSLVSKLGLGSG
0.69

Also PSRVPSSVPLAP ?
0.686

Repeat with KRCTFCGGGWVM
0.728

And for EVWGSVETSCAS ?
0.739

Same question for SLPPPLPRRPPP please.
0.729

Item: RELLWFIFTGFC
0.622

Next entry: LRLECESIKRYT
0.61

Request: RLASGGSAFINL
0.78

Also, AWGWPWGHGFVV please.
0.738

Thanks! And LSSPCAFTCPLL ?
0.714

Okay, and FSSFLGFIRFFV ?
0.426

Moving on to the next sequence: AFPHRLTRGYDQ
0.666

Another sequence to check: PTPMLPNYPWSR
0.743

Another: SNFDVRRLLVIQ
0.455

Proceed to LFSPTFPTIYYA
0.759

Now the same for PPLPSSPPSSPL
0.68

And what about the sequence TDCAPRGGRWKR ?
0.656

Try this sequence next: VGSVWGDCLGYL
0.701

What do you get for RVETYQKMTSRL ?
0.757

What about this sequence? SLGFMALFYLPL
0.649

Cool, now FRDPTVLCCLHI
0.515

# repeat for SEPCSASLSVSL
0.64

And the next one, GLPRRFLLLSVV ?
0.218

How about AHLLFGFGAPVS ?
0.714

Follow-up item: RPAPASAFPHSP
0.69

LEWHRPLCPPLF , same question.
0.734

Subsequent entry: YVSSYILPVTRV
0.603

What do we get for ERIGAREQPSAT ?
0.708

Moving on to the next sequence: PPPHPKPPPAGH
0.62

Same for GRLWGGIKGGMG
0.663

Note, next up: HSRPRRQPPHSP
0.705

Likewise for VGWSWTSWTKGD ?
0.661

Same lookup for SATALTANHPKM , please.
0.677

Now consider LPPRPPRRPESP and answer again.
0.663

Now this one: AIERCCTSRRRR
0.701

Queued: KSSIGVWTLLIR
0.494

Repeat with QREKGEKERTET
0.678

Same for APFPPHPPPPPS
0.707

Would you mind doing LPPSPPPFPPLP as well?
0.642

Quick one: LCHCLSLLFSFL
0.581

One more sequence: KFRLAGSVARSG
0.684

Consider next the sequence QKKNSKKIKPKR in the same way.
0.694

Further, for LFFFLFSLLIFF ?
0.301

Quick one: PHPPHRLPYPRL
0.808

What do you have for QDFDHPNSIRLP ?
0.671

// repeat for GCRGGLREAGVW and report
0.768

Another sequence to look at: WFLRLVGAVFAL
0.447

Then this sequence: GYFSTFIKSSML
0.715

Item: AFHTLSGFRRVP
0.673

# repeat for SGGGGVLGWRGG
0.682

Thanks! And VVVLGVGGVGWW ?
0.704

Moving on to KKTTKRKKEKQK
0.633

Input MLECIIHLTITR
0.483

How about this sequence: TPPPPPPPLRAT
0.638

Next entry: GWRGVVLVFVLV
0.368

Next: VAVGAGAGAMGL
0.656

Same for PPPGPRPPSRSN
0.581

Please do the same for ICGLLFNLCKHD as well.
0.622

Same again, this time with IGLVVVRPKIMI
0.558

# iterate: PPVPPPHASPAP
0.709

Next record, please: TRPCFSGFNSPF
0.655

Check GSWLGVGDRLVC too.
0.717

What do you have for VVDSGLFLAASR ?
0.643

LVSVLLLFWFLF , same question.
0.394

Quick one: VLCCFLFGFLLV
0.576

# iterate: MVMEGLRTLSCQ
0.659

Can you handle GQRGGRGKENSD next?
0.629

Now give it for CVAFLPISSFTS too.
0.76

Then this sequence: SPSGCVGSSAQS
0.681

And what about the sequence LISRQFPNHGWT ?
0.675

Also need PPATTPICSTPS , thanks.
0.681

Here is the next sequence: VFCLGTRSWGLF
0.7

Thanks! And HNDYKGSQIDNG ?
0.573

// repeat for ISSNMIVMAICG and report
0.6
